assay: LNP Zeta potential measured using a Zetasizer (Malvern); format: physicochemical; settings: Table 8; LNP 50:10:38.5:1.5 mol %; hEPO mRNA; N:P 6
observed.property: Zeta potential (mV)

>>> observed("CCCCCCCC(CCCCCCC)C(=O)OCCN(CCOC(=O)C(CCCCCCC)CCCCCCC)C(=O)CCCN(C)C")
"−9.4"
>>> observed("CCCCCCCCC(CCCCCC)C(=O)OCCN(CCOC(=O)C(CCCCCC)CCCCCCCC)C(=O)CCCNCC.Cl (stereo not shown)")
"−9.5"
>>> observed("CCCCCCCCC(CCCCCC)C(=O)OCCN(CCOC(=O)C(CCCCCC)CCCCCCCC)C(=O)CCNC.Cl (stereo not shown)")
"−1.6"
>>> observed("CCCCCCCCC(CCCCCC)C(=O)OCCN(CCOC(=O)C(CCCCCC)CCCCCCCC)C(=O)CCCN(C)C (stereo not shown)")
"−8.457"
>>> observed("CCCCCCCCC(CCCCCC)C(=O)OCCN(CCOC(=O)C(CCCCCC)CCCCCCCC)C(=O)CCCN(CC)CCC.Cl (stereo not shown)")
"−18.1"
>>> observed("CCCCCCCCC(CCCCCC)C(=O)OCCN(CCOC(=O)C(CCCCCC)CCCCCCCC)C(=O)C(C)CNC.Cl (stereo not shown)")
"−8.7"
>>> observed("CCCCCCCCC(CCCCCC)C(=O)OCCN(CCOC(=O)C(CCCCCC)CCCCCCCC)C(=O)C(C)CNCCC.Cl (stereo not shown)")
"−11.9"
>>> observed("CCCCCCCCC(CCCCCC)C(=O)OCCN(CCOC(=O)C(CCCCCC)CCCCCCCC)C(=O)CCCN(C)CCO.Cl (stereo not shown)")
"−8.2"
>>> observed("CCCCCCCCC(CCCCCC)C(=O)OCCN(CCOC(=O)C(CCCCCC)CCCCCCCC)C(=O)CCCN(C)CC.Cl (stereo not shown)")
"−10.7"
>>> observed("CCCCCCCCC(CCCCCC)C(=O)OCCN(CCOC(=O)C(CCCCCC)CCCCCCCC)C(=O)CCCN(C)CCC.Cl (stereo not shown) [Compound 938]")
"−18.3"
>>> observed("CCCCCCCCC(CCCCCC)C(=O)OCCN(CCOC(=O)C(CCCCCC)CCCCCCCC)C(=O)CCCN1CCCCC1.Cl (stereo not shown)")
"−15.9"
>>> observed("CCCCCCCCC(CCCCCC)C(=O)OCCN(CCOC(=O)C(CCCCCC)CCCCCCCC)C(=O)C(C)CNCC.Cl (stereo not shown)")
"−6.1"
>>> observed("CCCCCCCCC(CCCCCC)C(=O)OCCN(CCOC(=O)C(CCCCCC)CCCCCCCC)C(=O)CCCN1CCCC1.Cl (stereo not shown)")
"−14.2"
>>> observed("CCCCCCCCC(CCCCCC)C(=O)OCCN(CCOC(=O)C(CCCCCC)CCCCCCCC)C(=O)CCCN(CC)CC.Cl (stereo not shown)")
"−9.2"
>>> observed("CCCCCCCCC(CCCCCC)C(=O)OCCN(CCOC(=O)C(CCCCCC)CCCCCCCC)C(=O)CCNCC.Cl (stereo not shown)")
"−2.9"
>>> observed("CCCCCCCCC(CCCCCC)C(=O)OCCN(CCOC(=O)C(CCCCCC)CCCCCCCC)C(=O)CCCN(C)CCC.Cl (stereo not shown) [Compound 939]")
"−14.9"
>>> observed("CCCCCCCCC(CCCCCC)C(=O)OCCN(CCOC(=O)C(CCCCCC)CCCCCCCC)C(=O)CCNCCC.Cl (stereo not shown)")
"−8"
>>> observed("CCCCCCCCCCCOC(=O)CCCCCN(CCO)CCCCCCCC(=O)OC(CCCCCCCC)CCCCCCCC [SM-102, reference compound]")
"−9.7"
>>> observed("CCCCCCCCCC(CCCCCCCC)C(=O)OCCN(CCOC(=O)C(CCCCCCCC)CCCCCCCCC)C(=O)CCCN(C)C.Cl (stereo not shown)")
"−12.2"
